assay: Cmax in Sprague-Dawley rat at 5 mg/kg, po; format: ADME, organism-based; set-up: dose 5 mg/kg, route oral; details: in vivo
Each item that follows carries a reported Cmax.
EXPERIMENTAL_ENDPOINT: Cmax (ng/mL)

[
  {
    "COMPOUND_STRUCTURE_STRING": "CC(C)n1nc(C(=O)N[C@H]2C[C@H]3CC[C@@H](C2)N3CCN2CCN(S(C)(=O)=O)CC2)c2ccccc21",
    "EXPERIMENTAL_ENDPOINT": "Cmax",
    "VALUE_REPORTED": 99
  },
  {
    "COMPOUND_STRUCTURE_STRING": "CC(C)n1nc(C(=O)N[C@H]2C[C@H]3CC[C@@H](C2)N3C[C@@H](O)CN2CCN(S(C)(=O)=O)CC2)c2ccccc21",
    "EXPERIMENTAL_ENDPOINT": "Cmax",
    "VALUE_REPORTED": 35
  },
  {
    "COMPOUND_STRUCTURE_STRING": "CC(=O)N1CCN(CCN2[C@@H]3CC[C@H]2C[C@@H](NC(=O)c2nn(C(C)C)c4ccccc24)C3)CC1",
    "EXPERIMENTAL_ENDPOINT": "Cmax",
    "VALUE_REPORTED": 254
  }
]

###

target: UniProtKB Q12809; assay: Inhibition of human ERG expressed in CHO cells at 3 uM; type: cell-based; settings: CHO cells expressing human ERG
Sequence (Q12809 whole entry): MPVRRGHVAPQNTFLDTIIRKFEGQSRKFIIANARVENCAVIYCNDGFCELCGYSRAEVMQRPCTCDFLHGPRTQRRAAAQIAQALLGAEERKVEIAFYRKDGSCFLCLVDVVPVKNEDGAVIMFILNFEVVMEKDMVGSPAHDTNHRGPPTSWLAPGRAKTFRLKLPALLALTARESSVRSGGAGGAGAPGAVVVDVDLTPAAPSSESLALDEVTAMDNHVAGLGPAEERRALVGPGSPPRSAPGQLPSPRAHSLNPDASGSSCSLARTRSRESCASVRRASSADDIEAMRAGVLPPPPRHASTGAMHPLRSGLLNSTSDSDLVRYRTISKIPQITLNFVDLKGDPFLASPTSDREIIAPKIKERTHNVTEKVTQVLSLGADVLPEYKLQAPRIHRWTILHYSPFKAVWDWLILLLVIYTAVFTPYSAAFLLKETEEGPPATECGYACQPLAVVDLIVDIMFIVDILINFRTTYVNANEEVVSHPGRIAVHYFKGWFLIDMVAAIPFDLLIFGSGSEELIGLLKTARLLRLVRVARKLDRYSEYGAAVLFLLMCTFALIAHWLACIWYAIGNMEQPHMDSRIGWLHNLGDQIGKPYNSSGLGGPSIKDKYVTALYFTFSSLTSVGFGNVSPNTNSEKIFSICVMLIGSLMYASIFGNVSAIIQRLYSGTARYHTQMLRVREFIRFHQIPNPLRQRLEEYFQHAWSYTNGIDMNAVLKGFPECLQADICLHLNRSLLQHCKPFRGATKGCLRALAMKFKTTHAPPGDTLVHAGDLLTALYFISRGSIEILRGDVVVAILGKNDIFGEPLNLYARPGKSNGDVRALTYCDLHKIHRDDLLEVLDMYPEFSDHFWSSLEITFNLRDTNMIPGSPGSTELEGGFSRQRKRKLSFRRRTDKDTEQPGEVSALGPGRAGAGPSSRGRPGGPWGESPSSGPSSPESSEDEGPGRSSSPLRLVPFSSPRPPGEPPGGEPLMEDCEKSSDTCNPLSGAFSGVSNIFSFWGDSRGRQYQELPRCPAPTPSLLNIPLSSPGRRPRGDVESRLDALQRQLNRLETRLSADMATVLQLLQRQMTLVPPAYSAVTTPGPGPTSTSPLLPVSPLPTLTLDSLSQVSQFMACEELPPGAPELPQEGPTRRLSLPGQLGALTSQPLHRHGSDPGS

[
  {
    "COMPOUND": "CC(C)N(C)CC(O)CN1[C@@H]2CC[C@H]1C[C@@H](NC(=O)c1nn(C(C)C)c3ccccc13)C2 (some centres undefined)",
    "SYSTEM_TESTED": "UniProtKB Q12809",
    "inhibition at 3 µM": "29%"
  },
  {
    "COMPOUND": "CC(C)n1nc(C(=O)N[C@H]2C[C@H]3CC[C@@H](C2)N3C[C@@H](O)CN2CCN(S(C)(=O)=O)CC2)c2ccccc21",
    "SYSTEM_TESTED": "UniProtKB Q12809",
    "inhibition at 3 µM": "7%"
  },
  {
    "COMPOUND": "CC(C)n1nc(C(=O)N[C@H]2C[C@H]3CC[C@@H](C2)N3CC(O)CN2CCCCC2)c2ccccc21 (some centres undefined)",
    "SYSTEM_TESTED": "UniProtKB Q12809",
    "inhibition at 3 µM": "62%"
  },
  {
    "COMPOUND": "CCCCCNC(=N)N/N=C/c1c[nH]c2ccc(OC)cc12",
    "SYSTEM_TESTED": "UniProtKB Q12809",
    "inhibition at 3 µM": "33%"
  },
  {
    "COMPOUND": "COC[C@@H]1CCCN1CC(O)CN1[C@@H]2CC[C@H]1C[C@@H](NC(=O)c1nn(C(C)C)c3ccccc13)C2 (some centres undefined)",
    "SYSTEM_TESTED": "UniProtKB Q12809",
    "inhibition at 3 µM": "33%"
  },
  {
    "COMPOUND": "CC(C)n1nc(C(=O)N[C@H]2C[C@H]3CC[C@@H](C2)N3CC(O)CN2CCN(S(C)(=O)=O)CC2)c2ccccc21 (some centres undefined)",
    "SYSTEM_TESTED": "UniProtKB Q12809",
    "inhibition at 3 µM": "4%"
  },
  {
    "COMPOUND": "CC(C)n1nc(C(=O)N[C@H]2C[C@H]3CC[C@@H](C2)N3CCN2CCN(S(C)(=O)=O)CC2)c2ccccc21",
    "SYSTEM_TESTED": "UniProtKB Q12809",
    "inhibition at 3 µM": "9%"
  },
  {
    "COMPOUND": "CC(C)n1nc(C(=O)N[C@H]2C[C@H]3CC[C@@H](C2)N3C[C@H](O)CN2CCN(S(C)(=O)=O)CC2)c2ccccc21",
    "SYSTEM_TESTED": "UniProtKB Q12809",
    "inhibition at 3 µM": "7%"
  },
  {
    "COMPOUND": "CC(=O)N1CCN(CCN2[C@@H]3CC[C@H]2C[C@@H](NC(=O)c2nn(C(C)C)c4ccccc24)C3)CC1",
    "SYSTEM_TESTED": "UniProtKB Q12809",
    "inhibition at 3 µM": "9%"
  }
]
